target: full-length beta-Catenin (Uniprot ID P35222) (Homo sapiens, UniProt P35222)
Construct: 10 nM full-length beta-Catenin (Uniprot ID P35222)
experimental details: Fluorescence polarization IC50 (beta-catenin / 5FAM-TCF4 10-53 competition)
Format: binding
run parameters: Table E2-1; read-out: beta-Catenin FP IC50
Field: IC50. Provide a value for each of the compounds that follow.
Value and unit, in that order.

- compound: "CC(=O)N1CCC[C@]12CC=CCCCC1(CCCC=CCCCCCC[C@@](C)(C(=O)N[C@@H](Cc3ccccc3C(N)=O)C(=O)N[C@@H](Cc3csc4ccccc34)C(=O)N[C@@H](CCC(N)=O)C(N)=O)NC(=O)[C@H](C(C)C)NC(=O)[C@H](Cc3ccccc3)NC(=O)[C@H](C)NC(=O)[C@H](C)NC(=O)[C@H](CC(=O)O)NC(=O)[C@H](CC(=O)O)NC1=O)NC(=O)[C@H](C)NC(=O)[C@H](CC(=O)O)NC2=O (some centres unmarked) [I-336]"
  target: "full-length beta-Catenin (Uniprot ID P35222) (Homo sapiens, UniProt P35222)"
  IC50: "153 nM"

Switching to the query record.
Sample CC(=O)N1CCC[C@]12CC=CCCCC1(CCCC=CCCCCCC[C@@](C)(C(=O)N[C@@H](Cc3ccccc3)C(=O)N[C@@H](Cc3c[nH]c4ccccc34)C(=O)N[C@@H](CCC(N)=O)C(N)=O)NC(=O)[C@H](C(C)C)NC(=O)[C@H](Cc3ccccc3)NC(=O)[C@H](C)NC(=O)[C@H](C)NC(=O)[C@H](CCC(N)=O)NC(=O)[C@H](CC(=O)O)NC1=O)NC(=O)[C@H](C)NC(=O)[C@H](CC(=O)O)NC2=O (some centres unmarked) [I-127] , system: full-length beta-Catenin (Uniprot ID P35222) (Homo sapiens, UniProt P35222). Its IC50 is 4840 nM

* * *

Exercise: state measured IC50 for each of the compounds provided.
target: beta-catenin/TCF4 engagement (Homo sapiens, UniProt P35222)
Construct: expressed in transfected cells; host or cells: HEK293
Sequence (P35222 whole entry): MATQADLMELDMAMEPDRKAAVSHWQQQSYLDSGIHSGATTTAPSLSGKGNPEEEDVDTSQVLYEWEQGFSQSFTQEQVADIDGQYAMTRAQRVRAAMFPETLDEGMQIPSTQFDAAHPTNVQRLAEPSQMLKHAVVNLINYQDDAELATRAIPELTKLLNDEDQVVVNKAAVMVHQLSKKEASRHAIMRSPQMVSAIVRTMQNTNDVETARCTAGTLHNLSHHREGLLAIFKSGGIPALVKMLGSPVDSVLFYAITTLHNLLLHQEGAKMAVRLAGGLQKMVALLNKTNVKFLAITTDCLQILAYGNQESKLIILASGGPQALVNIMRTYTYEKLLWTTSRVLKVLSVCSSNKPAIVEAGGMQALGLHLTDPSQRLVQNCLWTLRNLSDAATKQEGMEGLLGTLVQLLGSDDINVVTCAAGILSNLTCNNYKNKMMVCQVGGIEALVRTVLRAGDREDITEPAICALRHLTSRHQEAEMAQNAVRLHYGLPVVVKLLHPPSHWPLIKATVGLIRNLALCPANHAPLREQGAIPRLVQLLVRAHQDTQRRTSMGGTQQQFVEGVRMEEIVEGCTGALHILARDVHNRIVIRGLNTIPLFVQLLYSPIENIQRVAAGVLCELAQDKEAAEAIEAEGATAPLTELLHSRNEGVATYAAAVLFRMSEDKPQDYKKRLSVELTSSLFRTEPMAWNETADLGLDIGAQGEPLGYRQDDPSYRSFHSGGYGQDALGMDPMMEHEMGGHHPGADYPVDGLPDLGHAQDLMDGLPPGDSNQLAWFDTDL
experimental details: Nano-BRET target engagement assay (B-cat-Halo & TCF4-Luc in HEK293 cells)
Assay type: cell-based
run parameters: read-out: NanoBRET IC50
Your answer should be a number followed by the unit of measure.

Field: IC50. Fill in for each record below.
1. CC(=O)N1CCC[C@]12CC=CCCCC1(CCCC=CCCCCCC[C@@](C)(C(=O)N[C@@H](Cc3ccsc3)C(=O)N[C@@H](Cc3csc4ccccc34)C(=O)N[C@@H](CCC(N)=O)C(N)=O)NC(=O)[C@H](CC(N)=O)NC(=O)[C@H](Cc3ccccc3)NC(=O)[C@H](C)NC(=O)[C@H](C)NC(=O)[C@H](CN(CC(=O)O)CC(F)(F)F)NC(=O)[C@H](CC(=O)O)NC1=O)NC(=O)[C@H](CC1CCCCC1)NC(=O)[C@H](CC(=O)O)NC2=O (some centres unmarked)
2. CC(=O)N1CCC[C@]12CC=CCCCC1(CCCC=CCCCOC(=O)N3CC[C@@](C(=O)N[C@@H](Cc4ccsc4)C(=O)N[C@@H](Cc4csc5ccccc45)C(=O)N[C@@H](CCC(N)=O)C(N)=O)(C3)NC(=O)[C@H](CC(C)C)NC(=O)[C@H](Cc3ccccc3)NC(=O)[C@H](C)NC(=O)[C@H](C)NC(=O)[C@H](CC(=O)O)NC(=O)[C@H](CC(=O)O)NC1=O)NC(=O)[C@H](CC(C)(C)C)NC(=O)[C@H](CC(=O)O)NC2=O (some centres unmarked)
3. CC(=O)N1CCC[C@]12CC=CCCCC1(CCCC=CCCCOC(=O)N3CC[C@@](C(=O)N[C@@H](Cc4ccccc4)C(=O)N[C@@H](Cc4csc5ccccc45)C(=O)N[C@@H](Cc4c[nH]cn4)C(N)=O)(C3)NC(=O)[C@H](CC(N)=O)NC(=O)[C@H](Cc3ccccc3)NC(=O)[C@H](C)NC(=O)[C@H](C)NC(=O)[C@H](CC(=O)O)NC(=O)[C@H](CC(=O)O)NC1=O)NC(=O)[C@H](CC(C)(C)C)NC(=O)[C@H](CC(=O)O)NC2=O (some centres unmarked)
4. CC(=O)N1CCC[C@]12CC=CCCCC1(CCCC=CCCCOC(=O)N3CC[C@@](C(=O)N[C@@H](Cc4ccsc4)C(=O)N[C@@H](Cc4csc5ccccc45)C(=O)N[C@@H](C(N)=O)[C@H](C)O)(C3)NC(=O)[C@H](CC(N)=O)NC(=O)[C@H](Cc3ccccc3)NC(=O)[C@H](C)NC(=O)[C@H](C)NC(=O)[C@H](CC(=O)O)NC(=O)[C@H](CC(=O)O)NC1=O)NC(=O)[C@H](CC(C)(C)C)NC(=O)[C@H](CC(=O)O)NC2=O (some centres unmarked)
5. CC(=O)N1CCC[C@]12CC=CCCCC1(CCCC=CCCCOC(=O)N3CC[C@@](C(=O)N[C@@H](Cc4ccccc4Cl)C(=O)N[C@@H](Cc4csc5ccccc45)C(=O)N[C@@H](CCC(N)=O)C(N)=O)(C3)NC(=O)[C@H]([C@@H](C)O)NC(=O)[C@H](Cc3ccccc3)NC(=O)[C@H](C)NC(=O)[C@H](C)NC(=O)[C@H](CN(CC(=O)O)CC(F)(F)F)NC(=O)[C@H](CC(=O)O)NC1=O)NC(=O)[C@H](CC(C)(C)C)NC(=O)[C@H](CC(=O)O)NC2=O (some centres unmarked)

Reply text:
1. 11.5 µM
2. 6.8 µM
3. 14.4 µM
4. 6.8 µM
5. 2.3 µM
